Source of measurements: patent US20230061973A1

# Assayed Target: T1, exemplary TAT frataxin fusion molecule (HIV-1, UniProt Q16595 1-210)
# T1 construct: in the bridging assays biotinylated and sulfotagged forms were used; also called TAT-FXN fusion molecule; TAT FXN fusion molecule
# T1 sequence: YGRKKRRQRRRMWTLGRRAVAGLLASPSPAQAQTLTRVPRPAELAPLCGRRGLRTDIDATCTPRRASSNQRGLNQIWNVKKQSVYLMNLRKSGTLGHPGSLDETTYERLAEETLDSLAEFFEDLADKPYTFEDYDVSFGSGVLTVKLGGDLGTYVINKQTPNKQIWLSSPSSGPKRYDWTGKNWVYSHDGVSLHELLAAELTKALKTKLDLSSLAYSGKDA
# Protocol Details: PK sandwich ELISA in human plasma, antibody as capture, HRP anti-frataxin mAb detection
Endpoint Label: Mean OD at plasma conc. 51.2 ng/mL
Don't forget the unit after the value.

Solved entries (count: 2):
Binder	Endpoint Label	Assay Result
antibody 10-9 (antibody, V domains shown, Rabbit monoclonal) VH: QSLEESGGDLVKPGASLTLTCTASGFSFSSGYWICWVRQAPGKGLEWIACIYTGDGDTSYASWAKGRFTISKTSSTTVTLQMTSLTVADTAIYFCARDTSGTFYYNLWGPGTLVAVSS VL: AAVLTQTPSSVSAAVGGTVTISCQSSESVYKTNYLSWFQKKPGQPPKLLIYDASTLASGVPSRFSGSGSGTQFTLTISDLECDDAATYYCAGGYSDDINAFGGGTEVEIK	Mean OD at plasma conc. 51.2 ng/mL	2.77 OD
antibody 12-1 (antibody, V domains shown, Rabbit monoclonal) VH: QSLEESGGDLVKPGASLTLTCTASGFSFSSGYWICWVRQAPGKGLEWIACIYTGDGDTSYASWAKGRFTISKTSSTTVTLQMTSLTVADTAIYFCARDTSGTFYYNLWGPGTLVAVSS VL: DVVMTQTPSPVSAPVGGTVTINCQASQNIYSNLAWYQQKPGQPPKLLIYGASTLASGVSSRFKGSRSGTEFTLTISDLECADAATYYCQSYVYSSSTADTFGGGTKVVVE	Mean OD at plasma conc. 51.2 ng/mL	2.67 OD

Give Mean OD at plasma conc. 51.2 ng/mL for all binders that follow.
1. antibody 10-12 (antibody, V domains shown, Rabbit monoclonal) VH: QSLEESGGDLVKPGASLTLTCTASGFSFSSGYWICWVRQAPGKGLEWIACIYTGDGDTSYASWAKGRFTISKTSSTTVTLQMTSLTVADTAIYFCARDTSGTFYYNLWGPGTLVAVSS VL: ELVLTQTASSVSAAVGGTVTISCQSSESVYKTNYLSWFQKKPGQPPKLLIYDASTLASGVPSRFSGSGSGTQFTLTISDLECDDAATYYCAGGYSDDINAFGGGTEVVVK
2. antibody 10-4 (antibody, V domains shown, Rabbit monoclonal) VH: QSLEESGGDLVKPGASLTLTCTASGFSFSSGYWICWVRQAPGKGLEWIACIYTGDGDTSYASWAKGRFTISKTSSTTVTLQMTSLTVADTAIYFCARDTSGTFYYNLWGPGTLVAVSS VL: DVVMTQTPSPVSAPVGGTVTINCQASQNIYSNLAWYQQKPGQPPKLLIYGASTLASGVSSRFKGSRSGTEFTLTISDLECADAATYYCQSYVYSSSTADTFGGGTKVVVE
3. antibody 12-10 (antibody, V domains shown, Rabbit monoclonal) VH: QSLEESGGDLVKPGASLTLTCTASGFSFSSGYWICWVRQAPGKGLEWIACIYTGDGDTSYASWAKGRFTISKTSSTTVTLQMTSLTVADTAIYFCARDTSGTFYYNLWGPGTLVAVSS VL: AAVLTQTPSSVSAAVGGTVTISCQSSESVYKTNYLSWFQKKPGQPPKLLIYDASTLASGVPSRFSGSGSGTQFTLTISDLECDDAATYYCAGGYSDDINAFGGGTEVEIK

["2.7 OD", "2.7 OD", "2.79 OD"]
